measurementTarget: CHO-K1-hGPRC5D^hi cells, CHO-K1-cynoGPRC5D cells, and/or CHO-K1-murineGPRC5D cells
measurementDescription: cell ELISA (OD450), subclone supernatant on fixed transfected CHO-K1 cells against CHO-K1
measuredEndpoint: fold difference in absorbance as compared to the control cell CHO-K1

Solved cases (3 shown):
binder	observedMeasurement
mu-128 (antibody, V domains shown) VH: DVQLVESGGGLVQPGGSRKVSCAASGFTFSSFGMHWVRQAPEKGLEWVAYISRGSSTIYYADTVKGRFTISRDNPKNTLFLQMTSLRSEDTAMYYCARSGYGSSSYYFDYWGQGTTLTVSS VL: ENVLTQSPAIMSASPREKVTMTCRASSSIRSSYLHWYQQKSGASPKLWIYSTSNLASGVPARFSGSGSGTSYSLTISSVEAEDAATYYCQQFSGYPLTFGGGTKLEIK	> 2 fold
mu-169 (antibody, V domains shown) VH: EVKLVESGGGLVKPGASLKLSCAASGFTFSNYGMSWVRQTSDKRLEWVASISSGGGRIYYPDNVKGRFTISRENAKNTLYLQMSSLKSEDTALYYCTRHAMDNWGQGTSVIVSS VL: QIVLTQSPAIMSASPGEKVTMTCSASSSVSNMYWYQQKSGTSPKRWIYDTSKLASGVPARFSGSGSGTSYSLTISSMEAEDASTYYCQQWSSNPLTFGAGTTLELK	> 2 fold
mu-89 (antibody, V domains shown) VH: EVQLVESGGDLVKPGGSLKLSCAASGFTFSSYGMSWVRQTPDKRLEWVATISSGGSYTYYPDSVKGRFTFSRDNAKNTLYLQMSSLKSEDTAMYYCVRQALRYHMDSWGQGTSVTVSS VL: DIVMTQSQKFMSTSVGDRVSVTCKASQNVGTNVAWYQQKPGQSPKALIYSASYRYSGVPDRFTGSGSGTDFTLTISNVQSEDLADFFCQQYYSYPWTFGGGTKLEIK	> 2 fold

Let us examine a further case.
Record summary for mu-131 (antibody, V domains shown) VH: EVQLQQSGPELVKPGASVKMSCKASGYTFTNYVMHWVKQKPGQGLEWIGYFNPYNDGTNYNEKFKGKATLTSDKSSNTAYMELSSLTSEDSAVYYCARGGVRRYFDVWGAGTTVTVSS VL: DIQMTQSPSSLSASLGERVSLTCRASQDIGSNLNWLQLGPDGTIKRLIYATFSLDSGVPKRFSGSRSGSDYSLTISSLESEDFVDYYCQQYANFPPTFGGGTKLEIK : reported fold difference in absorbance as compared to the control cell CHO-K1 = > 2 fold

Values from patent EP4703384A1
